The measured values listed here are drawn from ChEMBL document CHEMBL1132354.

- runDescription: The Cmax value in male wistar rat at 100 mg/kg, p.o. dose
- Assay type: ADME, organism-based
- Design: dose 100 mg/kg, route oral
- statedConditions: in vivo, po
Entries and their Cmax values follow.
valueKind: Cmax

* Cc1c(C)c2c(c(C)c1OCc1ccccc1)CCC(C)(COc1ccc(CC3SC(=O)NC3=O)cc1)O2 (configuration not stated) | 2170 ng/mL
* Cc1c(C)c2c(c(C)c1O)CCC(C)(COc1ccc(CC3SC(=O)NC3=O)cc1)O2 (configuration not stated) | 770 ng/mL

###

- runDescription: The half life value in female wistar rat at 100 mg/kg, p.o. dose
- Type: ADME, organism-based
- Set-up: dose 100 mg/kg, route oral
- statedConditions: in vivo, po
valueKind: half-life (h)

* Cc1c(C)c2c(c(C)c1OCc1ccccc1)CCC(C)(CN(C)CCOc1ccc(/C=C3\SC(=O)NC3=O)cc1)O2 (centres undefined) | 4.87
* Cc1c(C)c2c(c(C)c1OCc1ccccc1)CCC(C)(COc1ccc(CC3SC(=O)NC3=O)cc1)O2 (centres undefined) | 9.27
* Cc1c(C)c2c(c(C)c1OCc1ccccc1)CCC(C)(COc1ccc(/C=C3\SC(=O)NC3=O)cc1)O2 (centres undefined) | 10.4
* Cc1c(C)c2c(c(C)c1O)CCC(C)(COc1ccc(/C=C3\SC(=O)NC3=O)cc1)O2 (centres undefined) | 2.82

###

- runDescription: The Cmax value in female wistar rat at 100 mg/kg, p.o. dose
- Type: ADME, organism-based
- Set-up: dose 100 mg/kg, route oral
- statedConditions: in vivo, po
# label = yes if Cmax >= 4000 ng/mL else no

- Cc1c(C)c2c(c(C)c1OCc1ccccc1)CCC(C)(COc1ccc(/C=C3\SC(=O)NC3=O)cc1)O2 (stereo not given): no
- Cc1c(C)c2c(c(C)c1O)CCC(C)(COc1ccc(/C=C3\SC(=O)NC3=O)cc1)O2 (stereo not given): no
- Cc1c(C)c2c(c(C)c1O)CCC(C)(CN(C)CCOc1ccc(/C=C3\SC(=O)NC3=O)cc1)O2 (stereo not given): yes
- Cc1c(C)c2c(c(C)c1OCc1ccccc1)CCC(C)(COc1ccc(CC3SC(=O)NC3=O)cc1)O2 (stereo not given): no

###

- runDescription: The Kel value in female wistar rat at 100 mg/kg, p.o. dose
- Format: ADME, organism-based
- Set-up: dose 100 mg/kg, route oral
- statedConditions: in vivo, po
Quick reference: k el of the listed items.
valueKind: k el

- Cc1c(C)c2c(c(C)c1O)CCC(C)(COc1ccc(/C=C3\SC(=O)NC3=O)cc1)O2 (stereo not given): 6.94e-05 s⁻¹
- Cc1c(C)c2c(c(C)c1O)CCC(C)(CN(C)CCOc1ccc(/C=C3\SC(=O)NC3=O)cc1)O2 (stereo not given): 0.000106 s⁻¹
- Cc1c(C)c2c(c(C)c1OCc1ccccc1)CCC(C)(COc1ccc(/C=C3\SC(=O)NC3=O)cc1)O2 (stereo not given): 1.94e-05 s⁻¹
- Cc1c(C)c2c(c(C)c1OCc1ccccc1)CCC(C)(CN(C)CCOc1ccc(/C=C3\SC(=O)NC3=O)cc1)O2 (stereo not given): 4.17e-05 s⁻¹
- Cc1c(C)c2c(c(C)c1OCc1ccccc1)CCC(C)(COc1ccc(CC3SC(=O)NC3=O)cc1)O2 (stereo not given): 2.22e-05 s⁻¹

###

Entries and their Reduction values follow.
- Tested on: Mus musculus
- runDescription: The compound was tested for percent reduction in plasma glucose after 6 days of treatment at 30 mg/kg/day in mice
- Type: functional
valueKind: Reduction (%)

* Cc1c(C)c2c(c(C)c1OCc1ccccc1)CCC(C)(CN1CCC[C@H]1COc1ccc(/C=C3\SC(=O)NC3=O)cc1)O2 (stereo not given in full) | 41
* Cc1c(C)c2c(c(C)c1OCc1ccccc1)CCC(C)(CN1CCC[C@H]1COc1ccc(CC3SC(=O)NC3=O)cc1)O2.Cl (stereo not given in full) | 12
* Cc1c(C)c2c(c(C)c1OCc1ccccc1)CCC(C)(CN1CCC[C@H]1COc1ccc(/C=C3\SC(=O)[N-]C3=O)cc1)O2.[Na+] (stereo not given in full) | 8
* Cc1c(C)c2c(c(C)c1OCc1ccccc1)CCC(C)(CN1CCC[C@H]1COc1ccc(CC3SC(=O)[N-]C3=O)cc1)O2.[Na+] (stereo not given in full) | 36
* Cc1c(C)c2c(c(C)c1OCc1ccccc1)CCC(C)(CN1CCC[C@H]1COc1ccc(CC3SC(=O)NC3=O)cc1)O2 (stereo not given in full) | 23

###

- runDescription: The Kel value in male wistar rat at 100 mg/kg, p.o. dose
- Assay type: ADME, organism-based
- Design: dose 100 mg/kg, route oral
- statedConditions: in vivo, po
valueKind: k el (s⁻¹)

- Cc1c(C)c2c(c(C)c1O)CCC(C)(COc1ccc(CC3SC(=O)NC3=O)cc1)O2 (configuration not stated) [TROGLITAZONE]: 5.28e-05
- Cc1c(C)c2c(c(C)c1OCc1ccccc1)CCC(C)(COc1ccc(CC3SC(=O)NC3=O)cc1)O2 (configuration not stated): 3.33e-05

###

- runDescription: The Tmax value in female wistar rat at 100 mg/kg, p.o. dose
- Assay type: ADME, organism-based
- Design: dose 100 mg/kg, route oral
- statedConditions: in vivo, po
valueKind: Tmax (h)

* Cc1c(C)c2c(c(C)c1OCc1ccccc1)CCC(C)(COc1ccc(/C=C3\SC(=O)NC3=O)cc1)O2 (stereo not given) | 4.33
* Cc1c(C)c2c(c(C)c1O)CCC(C)(COc1ccc(/C=C3\SC(=O)NC3=O)cc1)O2 (stereo not given) | 1.75
* Cc1c(C)c2c(c(C)c1OCc1ccccc1)CCC(C)(CN(C)CCOc1ccc(/C=C3\SC(=O)NC3=O)cc1)O2 (stereo not given) | 3.25
* Cc1c(C)c2c(c(C)c1O)CCC(C)(CN(C)CCOc1ccc(/C=C3\SC(=O)NC3=O)cc1)O2 (stereo not given) | 1.38
* Cc1c(C)c2c(c(C)c1OCc1ccccc1)CCC(C)(COc1ccc(CC3SC(=O)NC3=O)cc1)O2 (stereo not given) | 3.33
